# IC50 values compiled below
Assay: Cytotoxic activity (MTT assay), normal cells
Type: cell-based
Details: human
readout.name: IC50 (µg/mL)

{"compound": "O=c1cc(-c2ccc(O)c(O)c2)oc2cc(O[C@@H]3O[C@H](CO)[C@@H](O)[C@H](O)[C@H]3O)cc(O)c12 [Compound 3, luteolin 7-O-β-D-glucoside]", "experimental.value": 49.6}
{"compound": "O=c1cc(-c2ccc(O)c(O)c2)oc2cc(O)cc(O)c12 [Compound 2, luteolin]", "experimental.value": 59.3}

###

# IC50 values compiled below
Test: Cytotoxic activity (MTT assay), normal cells
Type: cell-based
Details: human, WI-38 normal lung fibroblast cells; MTT; normal cells; read-out: In Vitro Cytotoxicity IC50 (µg/mL) WI-38
readout.name: IC50 (µg/mL)

{"compound": "CCC(CC[C@@H](C)C1CCC2C3CC=C4C[C@@H](O[C@@H]5O[C@H](CO)[C@@H](O)[C@H](O)[C@H]5O)CC[C@]4(C)C3CC[C@@]21C)C(C)C (stereo partly drawn) [Compound 5, β-sitosterol 3-O-β-D-glucoside]", "experimental.value": 34.8}
{"compound": "NC(CO)C(O)c1ccc2c(c1)OCO2 (centres unmarked)", "experimental.value": 61.7}

###

Tested on: E. coli
Assay: Antimicrobial screening, zone of inhibition
Format: cell-based
Details: Escherichia coli; Table 1; isolated compounds 1 mg/mL; read-out: E. coli Diameter of Inhibition Zone (mm)
Is zone of inhibition at 1000 µg/mL at least 9 mm? Then Yes. If not, No.

{"compound": "O=c1cc(-c2ccc(O)cc2)oc2cc(O[C@@H]3O[C@H](CO)[C@@H](O)[C@H](O)[C@H]3O)cc(O)c12 [Compound 4, apigenin 7-O-β-D-glucoside]", "system.tested": "E. coli", "group": "No"}
{"compound": "O=c1cc(-c2ccc(O)c(O)c2)oc2cc(O)cc(O)c12", "system.tested": "E. coli", "group": "Yes"}
{"compound": "CCC(CC[C@@H](C)C1CCC2C3CC=C4C[C@@H](O[C@@H]5O[C@H](CO)[C@@H](O)[C@H](O)[C@H]5O)CC[C@]4(C)C3CC[C@@]21C)C(C)C (stereo partly drawn) [Compound 5, β-sitosterol 3-O-β-D-glucoside]", "system.tested": "E. coli", "group": "No"}
{"compound": "O=C(O)c1cn(C2CC2)c2cc(N3CCNCC3)c(F)cc2c1=O [Ciprofloxacin, ciprofloxacin, reference compound]", "system.tested": "E. coli", "group": "Yes"}

###

Test: Cytotoxic activity (MTT assay), normal cells
Type: cell-based
Conditions: human; MTT; normal cells; read-out: In Vitro Cytotoxicity IC50 (µg/mL) WI-38

{"molecule": "O=c1cc(-c2ccc(O)cc2)oc2cc(O[C@@H]3O[C@H](CO)[C@@H](O)[C@H](O)[C@H]3O)cc(O)c12 [Compound 4, apigenin 7-O-β-D-glucoside]", "IC50": "84.3 µg/mL"}

###

Test system: C. albicans
Assay: Antimicrobial screening, zone of inhibition
Format: cell-based
Conditions: Candida albicans; Table 1; isolated compounds 1 mg/mL; read-out: C. Albicans Diameter of Inhibition Zone (mm)
readout.name: zone of inhibition at 1000 µg/mL (mm)

{"compound": "O=c1cc(-c2ccc(O)c(O)c2)oc2cc(O)cc(O)c12", "readout.name": "zone of inhibition at 1000 µg/mL", "scale.unit": "mm", "experimental.value": 10.7}
{"compound": "CCC(CC[C@@H](C)C1CCC2C3CC=C4C[C@@H](O[C@@H]5O[C@H](CO)[C@@H](O)[C@H](O)[C@H]5O)CC[C@]4(C)C3CC[C@@]21C)C(C)C (stereo partly drawn) [Compound 5, β-sitosterol 3-O-β-D-glucoside]", "readout.name": "zone of inhibition at 1000 µg/mL", "scale.unit": "mm", "experimental.value": 4.9}
{"compound": "O=c1cc(-c2ccc(O)c(O)c2)oc2cc(O[C@@H]3O[C@H](CO)[C@@H](O)[C@H](O)[C@H]3O)cc(O)c12 [Compound 3, luteolin 7-O-β-D-glucoside]", "readout.name": "zone of inhibition at 1000 µg/mL", "scale.unit": "mm", "experimental.value": 9.87}
{"compound": "Clc1ccccc1C(c1ccccc1)(c1ccccc1)n1ccnc1 [Clotrimazole, clotrimazole, reference compound]", "readout.name": "zone of inhibition at 1000 µg/mL", "scale.unit": "mm", "experimental.value": 26.9}
{"compound": "O=c1cc(-c2ccc(O)cc2)oc2cc(O[C@@H]3O[C@H](CO)[C@@H](O)[C@H](O)[C@H]3O)cc(O)c12 [Compound 4, apigenin 7-O-β-D-glucoside]", "readout.name": "zone of inhibition at 1000 µg/mL", "scale.unit": "mm", "experimental.value": 5.95}

###

System: S. aureus
Assay: Antimicrobial screening, zone of inhibition
Assay type: cell-based
Settings: Table 1; 1 mg/mL; relative to ciprofloxacin

{"compound": "O=c1cc(-c2ccc(O)c(O)c2)oc2cc(O)cc(O)c12 [Compound 2, luteolin]", "system.tested": "S. aureus", "S. aureus %Activity Index (%)": 71.7}
{"compound": "CCC(CC[C@@H](C)C1CCC2C3CC=C4C[C@@H](O[C@@H]5O[C@H](CO)[C@@H](O)[C@H](O)[C@H]5O)CC[C@]4(C)C3CC[C@@]21C)C(C)C (stereo partly drawn) [Compound 5, β-sitosterol 3-O-β-D-glucoside]", "system.tested": "S. aureus", "S. aureus %Activity Index (%)": 49.6}
{"compound": "O=c1cc(-c2ccc(O)c(O)c2)oc2cc(O[C@@H]3O[C@H](CO)[C@@H](O)[C@H](O)[C@H]3O)cc(O)c12 [Compound 3, luteolin 7-O-β-D-glucoside]", "system.tested": "S. aureus", "S. aureus %Activity Index (%)": 61.9}
{"compound": "O=c1cc(-c2ccc(O)cc2)oc2cc(O[C@@H]3O[C@H](CO)[C@@H](O)[C@H](O)[C@H]3O)cc(O)c12 [Compound 4, apigenin 7-O-β-D-glucoside]", "system.tested": "S. aureus", "S. aureus %Activity Index (%)": 50}
{"compound": "NC(CO)C(O)c1ccc2c(c1)OCO2 (centres unmarked) [Compound 1]", "system.tested": "S. aureus", "S. aureus %Activity Index (%)": 28.9}
